Quick list: IC50 per entry.
- targetDesc: human KDR protein in HEK-293 cells (Homo sapiens (Human))
- Sequence (P35968 20-1356): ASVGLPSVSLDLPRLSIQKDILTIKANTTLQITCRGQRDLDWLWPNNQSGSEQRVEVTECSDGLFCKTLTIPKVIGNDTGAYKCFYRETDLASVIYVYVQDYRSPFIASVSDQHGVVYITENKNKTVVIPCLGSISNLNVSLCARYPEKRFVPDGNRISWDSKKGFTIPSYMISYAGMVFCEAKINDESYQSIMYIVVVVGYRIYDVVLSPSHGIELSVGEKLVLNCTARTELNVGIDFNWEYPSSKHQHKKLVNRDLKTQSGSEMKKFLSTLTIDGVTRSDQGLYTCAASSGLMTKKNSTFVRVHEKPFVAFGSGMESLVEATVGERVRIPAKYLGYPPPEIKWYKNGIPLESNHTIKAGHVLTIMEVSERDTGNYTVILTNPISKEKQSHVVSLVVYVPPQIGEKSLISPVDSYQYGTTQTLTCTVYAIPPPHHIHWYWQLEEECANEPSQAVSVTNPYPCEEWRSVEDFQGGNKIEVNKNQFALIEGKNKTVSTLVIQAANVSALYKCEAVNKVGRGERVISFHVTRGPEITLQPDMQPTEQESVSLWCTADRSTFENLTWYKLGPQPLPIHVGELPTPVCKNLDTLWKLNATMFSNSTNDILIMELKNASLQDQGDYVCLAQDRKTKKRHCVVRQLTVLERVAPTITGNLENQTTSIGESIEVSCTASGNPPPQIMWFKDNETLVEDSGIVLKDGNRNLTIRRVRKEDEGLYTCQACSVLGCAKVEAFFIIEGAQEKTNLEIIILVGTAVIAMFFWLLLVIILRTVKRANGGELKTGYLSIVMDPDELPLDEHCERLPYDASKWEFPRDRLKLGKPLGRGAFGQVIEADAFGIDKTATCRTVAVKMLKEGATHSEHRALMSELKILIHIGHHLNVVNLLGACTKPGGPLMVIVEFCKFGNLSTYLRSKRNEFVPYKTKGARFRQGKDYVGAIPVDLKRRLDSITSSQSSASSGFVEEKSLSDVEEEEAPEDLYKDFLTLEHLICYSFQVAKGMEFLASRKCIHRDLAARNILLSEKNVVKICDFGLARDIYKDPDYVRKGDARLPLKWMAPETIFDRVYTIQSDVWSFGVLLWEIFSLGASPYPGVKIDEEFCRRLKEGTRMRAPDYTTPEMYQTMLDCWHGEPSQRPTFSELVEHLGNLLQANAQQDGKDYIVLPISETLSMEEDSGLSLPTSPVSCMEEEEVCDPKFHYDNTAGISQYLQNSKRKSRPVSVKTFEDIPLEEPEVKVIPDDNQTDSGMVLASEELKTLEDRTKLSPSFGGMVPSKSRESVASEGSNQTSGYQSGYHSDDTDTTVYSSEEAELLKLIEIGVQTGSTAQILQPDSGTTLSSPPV
- experimentNotes: KDR Cell Assay (phospho-KDR in HEK-293 cells expressing inducible KDR)
- Assay type: cell-based
- runConditions: pKDR Cell HEK 10% FBS IC50, HEK-293 cells expressing inducible KDR, VEGF stimulated, 10% FBS
- Protocol: The cellular potency of a compound inhibiting KDR kinase was determined in HEK-293 cells expressing an inducible human KDR protein. […] The cells were incubated for 1 hour with test compound in DMEM at a final DMSO concentration of 0.25%. […] The lysate was stored at −80° C. until ready for assay. Phospho-KDR was measured using a phospho-KDR kit (Catalog #K151BOC) purchased from Meso Scale Diagnostics (Rockville, Md.) according to the manufacturer's instructions. […]

| compound | IC50 (nM) |
| --- | --- |
| Cn1cc(-c2cc(-c3ccc(N4CCC(N5CCOC5=O)CC4)nc3)c3c(C#N)cnn3c2)cn1 [Example 191] | 21.8 |
| Cn1cc(-c2cc(-c3ccc(N4CCN(C=O)CC4)nc3)c3c(C#N)cnn3c2)cn1 [Example 141] | 203 |
| CC(C)OC(=O)NC1CCN(c2ccc(-c3cc(-c4cnn(C)c4)cn4ncc(C#N)c34)cn2)CC1 [Example 188] | 614 |
| Cc1cc(-c2cc(-c3cnn(C)c3)cn3ncc(C#N)c23)cnc1N1CCN(C(=O)[C@H](O)c2ccccc2)CC1 [Example 278] | 138 |
| Cn1cc(-c2cc(-c3ccc(N4CCN(C(=O)N5CCC(F)(F)CC5)CC4)nc3)c3c(C#N)cnn3c2)cn1 [Example 115] | 3180 |
| CC(C)C(=O)N1CC2(CCN(c3ccc(-c4cc(-c5cnn(C)c5)cn5ncc(C#N)c45)cn3)CC2)C1 [Example 221] | 1660 |
| N#Cc1cnn2cc(-c3cnn(C(F)F)c3)cc(-c3ccc(N4CCN(C(=O)[C@H](O)c5ccccc5)CC4)nc3)c12 [Example 268] | 497 |
| C[C@H](O)Cn1cc(-c2cc(-c3ccc(N4CCN(C(=O)CC(C)(C)C)CC4)cc3)c3c(C#N)cnn3c2)cn1 [Example 304] | 1610 |

----------
- targetDesc: Kif5b-RET fusion protein in HEK-293 cells (Homo sapiens, UniProt P07949)
- Sequence (P07949 29-1114 limits assumed): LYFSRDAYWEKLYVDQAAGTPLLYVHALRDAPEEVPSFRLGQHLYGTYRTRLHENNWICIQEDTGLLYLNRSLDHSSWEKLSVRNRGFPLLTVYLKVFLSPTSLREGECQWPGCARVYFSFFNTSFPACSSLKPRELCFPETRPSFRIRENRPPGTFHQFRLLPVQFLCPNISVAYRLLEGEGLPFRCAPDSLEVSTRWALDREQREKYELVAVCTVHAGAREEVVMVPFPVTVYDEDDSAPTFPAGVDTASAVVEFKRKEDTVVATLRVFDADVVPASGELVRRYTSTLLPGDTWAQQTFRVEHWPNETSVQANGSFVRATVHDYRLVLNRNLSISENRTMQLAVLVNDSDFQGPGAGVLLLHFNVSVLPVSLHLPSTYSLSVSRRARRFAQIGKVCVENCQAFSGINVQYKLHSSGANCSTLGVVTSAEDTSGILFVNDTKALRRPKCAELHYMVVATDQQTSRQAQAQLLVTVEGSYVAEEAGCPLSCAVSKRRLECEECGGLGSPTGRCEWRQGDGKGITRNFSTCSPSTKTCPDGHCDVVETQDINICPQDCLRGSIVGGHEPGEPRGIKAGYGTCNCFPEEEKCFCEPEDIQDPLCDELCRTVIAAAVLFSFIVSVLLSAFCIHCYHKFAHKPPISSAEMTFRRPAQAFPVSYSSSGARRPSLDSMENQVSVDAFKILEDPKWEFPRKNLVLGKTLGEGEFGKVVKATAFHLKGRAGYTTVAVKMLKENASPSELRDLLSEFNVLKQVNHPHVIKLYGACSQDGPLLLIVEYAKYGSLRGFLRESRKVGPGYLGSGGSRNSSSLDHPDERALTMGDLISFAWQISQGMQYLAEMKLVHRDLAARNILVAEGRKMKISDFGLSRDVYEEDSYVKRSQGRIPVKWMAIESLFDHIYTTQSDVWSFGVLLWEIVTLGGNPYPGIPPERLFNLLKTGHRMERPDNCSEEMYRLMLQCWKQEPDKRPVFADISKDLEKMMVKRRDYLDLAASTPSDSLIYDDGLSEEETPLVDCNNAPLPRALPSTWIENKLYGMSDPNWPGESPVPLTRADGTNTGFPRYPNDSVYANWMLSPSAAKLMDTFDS
- experimentNotes: cell-based
- runConditions: HEK-293 cells expressing Kif5b-RET, phospho-RET(Tyr1062); read-out: KIF5B-RET pTYR1062 Cell IC50
pIC50: −log10 of the molar value.
Quick list: pIC50 per entry.

| compound | pIC50 |
| --- | --- |
| CC(C)NC(=O)C1CCN(c2ccc(-c3cc(-c4cnn(C)c4)cn4ncc(C#N)c34)cn2)CC1 [Example 246] | 7.87 |
| CCC(C)(O)CC(=O)N1CCN(c2ccc(-c3cc(-c4cnn(C)c4)cn4ncc(C#N)c34)cn2)CC1 (stereo not shown) [Example 63] | 8.09 |
| COCC(=O)NC1CCN(c2ccc(-c3cc(-c4cnn(C)c4)cn4ncc(C#N)c34)cn2)CC1 [Example 183] | 7.80 |
| Cn1cc(-c2cc(-c3ccc(N4CCN(C=O)CC4)nc3)c3c(C#N)cnn3c2)cn1 [Example 141] | 7.88 |
| CC(C)CC(=O)N1CCN(c2ccc(-c3cc(-c4cnn(C)c4)cn4ncc(C#N)c34)cn2)CC1 [Example 75] | 8.15 |
| CC(C)C(=O)NC1CCN(c2ccc(-c3cc(-c4cnn(C)c4)cn4ncc(C#N)c34)cn2)CC1 [Example 185] | 7.84 |
| CCC1(C(=O)NCC(C)(C)O)CCN(c2ccc(-c3cc(-c4cnn(C)c4)cn4ncc(C#N)c34)cn2)CC1 [Example 258] | 8.00 |
| CCNC(=O)N1CCN(c2ccc(-c3cc(-c4cnn(C)c4)cn4ncc(C#N)c34)cn2)CC1 [Example 134] | 7.94 |
| C[C@@H](NC(=O)C1(C)CCN(c2ccc(-c3cc(-c4cnn(C)c4)cn4ncc(C#N)c34)cn2)CC1)C(F)(F)F [Example 253] | 8.08 |
| COCC(C)(C)C(=O)N1CCN(c2ccc(-c3cc(-c4cnn(C)c4)cn4ncc(C#N)c34)cn2)CC1 [Example 352] | 7.86 |
